Attribute: melting point

>>> result("COC(=O)c1nc(-c2cc3nonc3cc2Cl)cc(N)c1Cl")
"224 to 226 °C"
>>> result("COC(=O)c1nc(-c2cc3nonc3cc2F)cc(N)c1Cl")
"199 to 201 °C"
>>> result("COC(=O)c1nc(-c2ccc3nsnc3c2)c(F)c(N)c1Cl")
"196 to 198 °C"

Task item: I'd like to know its melting point. The compound in question is "COC(=O)c1nc(-c2ccc3nonc3c2OC)cc(N)c1Cl"
Reply: 142 to 144 °C

Task item: What do you get for "COC(=O)c1nc(-c2ccc3nonc3c2)c(F)c(N)c1Cl" ?
Reply: 180 to 182 °C
